Test: Permeability in MDCK cells
Assay type: ADME, cell-based, Canis lupus familiaris
Conditions: dog, read-out: permeability
endpoint: Papp (×10⁻⁶ cm/s)

INSERT INTO results (compoundsmiles, endpoint, experimentalvalue) VALUES
  ('CCCCc1cc(OC2CCN(CCCCNS(=O)(=O)CC)CC2)c2ncccc2c1.Cl.Cl', 'Papp', 5.2);

* * *

Test: Dissociation constant, pKa of the compound
Assay type: physicochemical
endpoint: pKa

INSERT INTO results (compoundsmiles, experimentalvalue) VALUES
  ('CCCCc1cc(OC2CCN(CCCNS(=O)(=O)CC)CC2)c2ncccc2c1', 8.5),
  ('CCCCc1cc(OC2CCN(CCCS(=O)(=O)C(C)(C)C)CC2)c2ncccc2c1', 8),
  ('CCCCc1cc(OC2CCN(CCCS(=O)(=O)CC)CC2)c2ncccc2c1.Cl.Cl', 7.9),
  ('CCCCc1cc(OC2CCN(CCS(=O)(=O)CC)CC2)c2ncccc2c1', 6.5);

The measured values listed here are drawn from ChEMBL document CHEMBL4043263.
